System: NCI-H2085
Assay: relative viability (nuclei count vs DMSO), 5 days (fraction); higher = more cells survive
Conditions: first compound 0.08 µM
Flag rule - relative viability less than 0.8 flags Met; the remaining entries get Not met.

• Cc1cnc(-c2cnc(NCCNc3ccc(C#N)cn3)nc2-c2ccc(Cl)cc2Cl)[nH]1 + Cc1nc(Nc2ncc(C(=O)Nc3c(C)cccc3Cl)s2)cc(N2CCN(CCO)CC2)n1 [Dasatinib] (partner 0.075 µM) = Met
• Cc1cnc(-c2cnc(NCCNc3ccc(C#N)cn3)nc2-c2ccc(Cl)cc2Cl)[nH]1 + C[C@@H](Oc1cc(-c2cnn(C3CCNCC3)c2)cnc1N)c1c(Cl)ccc(F)c1Cl [Crizotinib] (partner 1 µM) = Met
• Cc1cnc(-c2cnc(NCCNc3ccc(C#N)cn3)nc2-c2ccc(Cl)cc2Cl)[nH]1 + COc1cc2c(Oc3ccc(NC(=O)C4(C(=O)Nc5ccc(F)cc5)CC4)cc3F)ccnc2cc1OCCCN1CCOCC1 [Foretinib] (partner 0.25 µM) = Not met
• O=c1[nH]c2ccccc2n1C1CCN(CCCC(c2ccc(F)cc2)c2ccc(F)cc2)CC1 [Pimozide] + Nc1ncn([C@H]2C[C@H](O)[C@@H](CO)O2)c(=O)n1 [Decitabine] (partner 2 µM) = Met
• O=c1[nH]c2ccccc2n1C1CCN(CCCC(c2ccc(F)cc2)c2ccc(F)cc2)CC1 [Pimozide] + CC1(C)CCC(c2ccc(Cl)cc2)=C(CN2CCN(c3ccc(C(=O)NS(=O)(=O)c4ccc(N[C@H](CCN5CCOCC5)CSc5ccccc5)c(S(=O)(=O)C(F)(F)F)c4)cc3)CC2)C1 [Navitoclax] (partner 0.5 µM) = Not met
• Cc1cnc(-c2cnc(NCCNc3ccc(C#N)cn3)nc2-c2ccc(Cl)cc2Cl)[nH]1 + CC(=O)Nc1cccc(-n2c(=O)n(C3CC3)c(=O)c3c(Nc4ccc(I)cc4F)n(C)c(=O)c(C)c32)c1 [Trametinib] (partner 0.02 µM) = Met
• Cc1cnc(-c2cnc(NCCNc3ccc(C#N)cn3)nc2-c2ccc(Cl)cc2Cl)[nH]1 + CS(=O)(=O)CCNCc1ccc(-c2ccc3ncnc(Nc4ccc(OCc5cccc(F)c5)c(Cl)c4)c3c2)o1 [Lapatinib] (partner 2 µM) = Not met
